Target: mAb Mac2-158
Test: circular peptide array
measurement.label: rank of binding signal

- binder: "CRGNESALWD (modifications not checked)"
  measurement.label: "rank of binding signal"
  value.reported: "11 rank"
- binder: "EWGTVCNNGW (modifications not checked)"
  measurement.label: "rank of binding signal"
  value.reported: "19 rank"
- binder: "EWGTVCNNGWSME (modifications not checked)"
  measurement.label: "rank of binding signal"
  value.reported: "4 rank"
- binder: "WGTVCNNGWSMEA (modifications not checked)"
  measurement.label: "rank of binding signal"
  value.reported: "12 rank"
- binder: "SCRGNESALW (modifications not checked)"
  measurement.label: "rank of binding signal"
  value.reported: "3 rank"
- binder: "EEWGTVCNNGWSM (modifications not checked)"
  measurement.label: "rank of binding signal"
  value.reported: "14 rank"
- binder: "ALWDCKHDGW (modifications not checked)"
  measurement.label: "rank of binding signal"
  value.reported: "6 rank"
- binder: "VQEEWGTVCNNGW (modifications not checked)"
  measurement.label: "rank of binding signal"
  value.reported: "18 rank"
- binder: "NESALWDCKHDGW (modifications not checked)"
  measurement.label: "rank of binding signal"
  value.reported: "13 rank"
